experimentalProtocol: Single ascending dose (SAD) study in healthy male volunteers: pharmacokinetics
Format: in vivo, human
assayConditions: male, human, plasma, oral; 24 mg (N = 6), mean
metricName: Cmax (ng/mL)
The response must be a number in ng/mL with no trailing unit.

For the compound `Cc1ccc(C(=O)NNC(=O)c2c(C)cccc2Cl)cc1C#Cc1cnc2ccccc2c1` , what Cmax is on record? 909

====

experimentalProtocol: Single ascending dose (SAD) study in healthy male volunteers: pharmacokinetics
Type: in vivo, human
assayConditions: male, human, plasma, oral, 6 mg, 6 mg (N = 6), geometric mean; read-out: Vz/F
metricName: Vd/F (L)
Report only the number, with the unit L understood.

Which Vd/F is reported for this molecule? `Cc1ccc(C(=O)NNC(=O)c2c(C)cccc2Cl)cc1C#Cc1cnc2ccccc2c1` 91.6

====

experimentalProtocol: clinical
assayConditions: human, in vivo, po, 204 mg
metricName: Cmax (ng/mL)
Use ng/mL as the unit, but write only the number.

# query: Cmax of entry Cc1ccc(C(=O)NNC(=O)c2c(C)cccc2Cl)cc1C#Cc1cnc2ccccc2c1 [compound of Formula I] 3310

====

experimentalProtocol: clinical
assayConditions: human, in vivo, po
metricName: Tmax

Entry Cc1ccc(C(=O)NNC(=O)c2c(C)cccc2Cl)cc1C#Cc1cnc2ccccc2c1 [compound of Formula I] : reported Tmax = ? 1.5 to 2.5 h

====

experimentalProtocol: Pharmacokinetics in CML patients by dose cohort
assayConditions: human, plasma, po, 66 mg
metricName: AUC(0-t) (ng·h/mL)
Give the number; ng·h/mL is assumed, so skip it.

Fill in the blank: the reported AUC(0-t) of `Cc1ccc(C(=O)NNC(=O)c2c(C)cccc2Cl)cc1C#Cc1cnc2ccccc2c1` is ____. 7780

====

experimentalProtocol: Single ascending dose (SAD) study in healthy male volunteers: pharmacokinetics
Type: in vivo, human
assayConditions: male, human, plasma, oral, 12 mg, 12 mg (N = 6), geometric mean; read-out: t1/2 (converted)
metricName: half-life

Which measured half-life value corresponds to Cc1ccc(C(=O)NNC(=O)c2c(C)cccc2Cl)cc1C#Cc1cnc2ccccc2c1 [compound of Formula I] ? 12.7 h

====

experimentalProtocol: Single ascending dose (SAD) study in healthy male volunteers: pharmacokinetics
Format: in vivo, human
assayConditions: male, human, plasma, oral; 24 mg (N = 6), mean
metricName: AUC(0-inf) (ng·h/mL)
I only need the number, in ng·h/mL, no unit after it.

Consider the compound shown here: `Cc1ccc(C(=O)NNC(=O)c2c(C)cccc2Cl)cc1C#Cc1cnc2ccccc2c1` What is its recorded AUC(0-inf)? 6580

====

experimentalProtocol: Pharmacokinetics in CML patients by dose cohort
assayConditions: human, plasma, po, 12 mg
metricName: Cmax
Could you write the number and then its unit?

Give the measured Cmax of Cc1ccc(C(=O)NNC(=O)c2c(C)cccc2Cl)cc1C#Cc1cnc2ccccc2c1 [compound of Formula I] . 685 ng/mL

====

experimentalProtocol: Single ascending dose (SAD) study in healthy male volunteers: pharmacokinetics
Format: in vivo, human
assayConditions: male, human, plasma, oral, 24 mg, 24 mg (N = 6), geometric mean; read-out: Vz/F
metricName: Vd/F

Consider the compound Cc1ccc(C(=O)NNC(=O)c2c(C)cccc2Cl)cc1C#Cc1cnc2ccccc2c1 [compound of Formula I] and give its measured Vd/F. 69.8 L

====

experimentalProtocol: Pharmacokinetics in CML patients by dose cohort
assayConditions: human, plasma, po, 90 mg
metricName: Cmax (ng/mL)
Record the value in ng/mL, omitting the unit from your answer.

State the recorded Cmax for this entry: `Cc1ccc(C(=O)NNC(=O)c2c(C)cccc2Cl)cc1C#Cc1cnc2ccccc2c1` 2860

====

experimentalProtocol: Pharmacokinetics in CML patients by dose cohort
assayConditions: human, plasma, po, 126 mg
metricName: Cmax (ng/mL)
Report the figure in ng/mL without appending any unit label.

# lookup: Cmax of `Cc1ccc(C(=O)NNC(=O)c2c(C)cccc2Cl)cc1C#Cc1cnc2ccccc2c1` 4100

====

experimentalProtocol: Single ascending dose (SAD) study in healthy male volunteers: pharmacokinetics
Assay type: in vivo, human
assayConditions: male, human, plasma, oral, 12 mg, 12 mg (N = 6), geometric mean; read-out: Vz/F
metricName: Vd/F (L)
Report only the number, with the unit L understood.

I have this molecule here, Cc1ccc(C(=O)NNC(=O)c2c(C)cccc2Cl)cc1C#Cc1cnc2ccccc2c1 [compound of Formula I] , and I need its recorded Vd/F. 90.8

====

experimentalProtocol: clinical
assayConditions: human, in vivo, po, 204 mg
metricName: AUC(0-t) (ng·h/mL)
Kindly answer with a numeric value in ng·h/mL, unit omitted.

// query AUC(0-t) value for entry `Cc1ccc(C(=O)NNC(=O)c2c(C)cccc2Cl)cc1C#Cc1cnc2ccccc2c1` 27500

====

experimentalProtocol: Oral toxicity study in Wistar Rats
assayConditions: rat, in vivo
metricName: NOAEL (mg/kg/day)
Give a bare numeral; the unit mg/kg/day is implied.

Name the reported NOAEL value associated with the compound `Cc1ccc(C(=O)NNC(=O)c2c(C)cccc2Cl)cc1C#Cc1cnc2ccccc2c1` 100

====

experimentalProtocol: Pharmacokinetics in CML patients by dose cohort
assayConditions: human, plasma, po, 48 mg
metricName: Cmax (ng/mL)
Kindly provide the numeric value in ng/mL only, without the unit symbol.

Given the entry `Cc1ccc(C(=O)NNC(=O)c2c(C)cccc2Cl)cc1C#Cc1cnc2ccccc2c1` , report its measured Cmax. 1090

====

experimentalProtocol: Pharmacokinetics in CML patients by dose cohort
assayConditions: human, plasma, po, 48 mg
metricName: AUC(0-t) (ng·h/mL)
Use ng·h/mL as the unit, but write only the number.

Value lookup for AUC(0-t); key = `Cc1ccc(C(=O)NNC(=O)c2c(C)cccc2Cl)cc1C#Cc1cnc2ccccc2c1` 13700

====

experimentalProtocol: Single ascending dose (SAD) study in healthy male volunteers: pharmacokinetics
Format: in vivo, human
assayConditions: male, human, plasma, oral; 6 mg (N = 6), mean
metricName: AUC(0-inf) (ng·h/mL)
All answers are understood in ng·h/mL, so give the number only.

For the compound `Cc1ccc(C(=O)NNC(=O)c2c(C)cccc2Cl)cc1C#Cc1cnc2ccccc2c1` , what AUC(0-inf) is on record? 1740

====

experimentalProtocol: Single ascending dose (SAD) study in healthy male volunteers: pharmacokinetics
Type: in vivo, human
assayConditions: male, human, plasma, oral, 24 mg, across dose range 6, 12, 24 mg; read-out: apparent volume of distribution (Vz/F)
metricName: Vd/F

Need Vd/F, item `Cc1ccc(C(=O)NNC(=O)c2c(C)cccc2Cl)cc1C#Cc1cnc2ccccc2c1` 69.8 to 91.6 L

====

experimentalProtocol: Single ascending dose (SAD) study in healthy male volunteers: pharmacokinetics
Format: in vivo, human
assayConditions: male, human, plasma, oral, 24 mg, 24 mg (N = 6), mean; read-out: AUC(0-24)
metricName: AUC(0-t) (ng·h/mL)
Give just the numeric value; ng·h/mL need not be written.

Give its AUC(0-t) value. Item: `Cc1ccc(C(=O)NNC(=O)c2c(C)cccc2Cl)cc1C#Cc1cnc2ccccc2c1` 4760

====

experimentalProtocol: Single ascending dose (SAD) study in healthy male volunteers: pharmacokinetics
Format: in vivo, human
assayConditions: male, human, plasma, oral; 6 mg (N = 6), median; read-out: tmax
metricName: Tmax (h)
Respond numerically; units are h and should not be typed.

Query (compound): `Cc1ccc(C(=O)NNC(=O)c2c(C)cccc2Cl)cc1C#Cc1cnc2ccccc2c1` ; field requested: Tmax 2.5

====

experimentalProtocol: Pharmacokinetics in CML patients by dose cohort
assayConditions: human, plasma, po, 126 mg
metricName: AUC(0-t) (ng·h/mL)
All answers are understood in ng·h/mL, so give the number only.

Item under review: Cc1ccc(C(=O)NNC(=O)c2c(C)cccc2Cl)cc1C#Cc1cnc2ccccc2c1 [compound of Formula I] . Reported AUC(0-t)? 50300

====

experimentalProtocol: Single ascending dose (SAD) study in healthy male volunteers: pharmacokinetics
Type: in vivo, human
assayConditions: male, human, plasma, oral, 12 mg, 12 mg (N = 6), mean; read-out: AUC(0-24)
metricName: AUC(0-t)
Answer by giving the amount and then stating its unit.

I have this compound here, Cc1ccc(C(=O)NNC(=O)c2c(C)cccc2Cl)cc1C#Cc1cnc2ccccc2c1 [compound of Formula I] , and I need its recorded AUC(0-t). 1920 ng·h/mL

====

experimentalProtocol: Single ascending dose (SAD) study in healthy male volunteers: pharmacokinetics
Type: in vivo, human
assayConditions: male, human, plasma, oral, 24 mg, SAD study; read-out: maximum value of AUC(0-24)
metricName: AUC(0-t) (ng·h/mL)
Output spec: scalar in ng·h/mL, unitless text.

State the recorded AUC(0-t) for this entry: Cc1ccc(C(=O)NNC(=O)c2c(C)cccc2Cl)cc1C#Cc1cnc2ccccc2c1 [compound of Formula I] 6080

====

experimentalProtocol: Single ascending dose (SAD) study in healthy male volunteers: pharmacokinetics
Type: in vivo, human
assayConditions: male, human, plasma, oral; 6 mg (N = 6), mean
metricName: Cmax

# lookup: Cmax of `Cc1ccc(C(=O)NNC(=O)c2c(C)cccc2Cl)cc1C#Cc1cnc2ccccc2c1` 234 ng/mL

Source of measurements: patent US20260069584A1
